System: MS2 coat protein
PROCEDURE DETAILS: apparent KD of MS2 coat protein, switch ON state; designed switch direction (-1 OFF switch, 1 ON switch): -1; higher = weaker reporter binding
CONDITIONS: FMN input: 0 or 200 uM; Eterna round: R93 (includes R88 designs)
READOUT KIND: apparent KD of MS2 coat protein (nM)
Could you give me the number in nM? Just the number is fine.

Consider the following illustrative entries.
{"columns": ["CHAIN SEQUENCE", "ASSAY SYSTEM", "UNITS SYMBOL", "MEASURED"],
 "data": [
  ["AAAAAGUCAGGAUAUGUCAAAGGUCACGAAAGUGACAAAGGACAGAAGGGACAUGAGGAUCACCCAUGUAGGAA [Fiskers Exclusion 4D1 65% - Late G segment 2]", "MS2 coat protein", "nM", 55.5],
  ["UCCGCACAUGAGGAUCACCCAUGUCAGGAUAUACAAGAAAAUCAGGCUAAUGCCUGAAGUAGAAGGGACGAGGA [Armaingean]", "MS2 coat protein", "nM", 27.7],
  ["AAGAAGCGAGGAUAUACAAAAUAAAAGAAAAGAAAGAAAGAACAUGAGGAUCACCCAUGUAGAAGGUGCAAGAA [Sehetepkare Intef IV]", "MS2 coat protein", "nM", 46.7]
]}

Read off the recorded apparent KD of MS2 coat protein for AUAGGCCUAGGAUAUACAUGAGGAUCACCCAUGUAAACCGAUAGAUCACGGUAAACGAGUAGAAGGAGGAAUAA [JR_Exc003_Sub208]
26.5

Give apparent KD of MS2 coat protein for AAAAAGUGAGGAUAUAUAUGAAACAAAAAGAAAAAAAAAAAACAUGAGGAUCACCCAUGUAGAAGGCGCAAAAA ['Exclusion 2' Lab]
27.1

Please give the documented apparent KD of MS2 coat protein of GAAAAGUCAGGAUAUGUGGAAAAAAUAAAAAAAAUAAAAACACAGAAGGGACAUGAGGAUCACCCAUGUAAAAA [Mat - Exclusion 4 - Mayanna - D140]
68.3
